Where these numbers come from: paper PMC7409137

Test system: BRCA1 mutant HRR defective (HRD) cell lines (COV362 and UWB1.289)
Assay: Colony formation assay, HRR defective cell lines
Conditions: read-out: Carboplatin LC50 ± SD; HRD cell lines; 24 h exposure, colony formation
assayEndpoint: CC50 (nM)
Give bare numbers, in nM.

What value of CC50 has been recorded for this entry: N.N.O=C([O-])C1(C(=O)[O-])CCC1.[Pt+2]
1520

---

Test system: HRR competent (HRC) cell lines
Assay: Colony formation assay, HRR competent cell lines
Conditions: read-out: Carboplatin LC50 ± SD; HRC cell lines; 24 h exposure, colony formation
assayEndpoint: CC50
Returns: string containing the number followed by the unit.

Given the entry N.N.O=C([O-])C1(C(=O)[O-])CCC1.[Pt+2] , report its measured CC50.
7.02 µM
